assayed target: biotin-labeled SARS-COV-2 RBD domain (SARS-CoV-2, UniProt P0DTC2 319-541)
test description: SPR, Biacore T200, biotin-RBD on SA chip, antibody as analyte
pKd: −log10 of the molar value.
Listed here are binders together with their documented pKd.
reported property: pKd

• ABU-384 (antibody, V domains shown) VH: EVQLVESGGGLVQPGGSLRLSCAASGFTVSSNYMSWVRQAPGKGLEWVSIIYSGGSTYYADSVKGRFTISRDNSKNTLYLQMNSLRAEDTAVYYCARDYAGRVWGQGTLVTVSS VL: DIQMTQSPSSLSASVGDRVTITCQASQDIRSYLNWYQQKPGKAPKLLIYDASNLETGVASRFSGSGSGTDFTFTISSLQPEDIATYYCQQYDNLPQTFGQGTKLEIK = > 7.70
• ABU-376 (antibody, V domains shown) VH: EVQLVESGGGLVQPGGSLRLSCAASGLTVSSNYMSWVRQAPGKGLNWVSVIYSGGSTYYADSVKGRFTISRDNSKNTLYLEMNSLKPEDTAVYYCARLPYGMDVWGQGTTVTVSS VL: DIQMTQSPSSLSASVGDRVTITCQASQDIRNYLNWYQQKPGKAPKLLIHDASNLETGVPSRFIGSGSGTDFTFTISSLQPEDIATYYCQQYDNLPITFGQGTRLEIK = > 8.00
